# target.of.assay: UniProt:P06276
# test: biochemical
# experimental.parameters: read-out: % inhibition BuChE
I would appreciate it if you labelled entries Y when inhibition at 100 µM is 80% or higher, otherwise N.

## Input API: above_or_equal(metric=inhibition at 100 µM, cutoff=80%) for item COc1cc2c(cc1OC)C(=O)C(CC1CCN(Cc3ccccc3)CC1)C2 (stereo not drawn) [Donepezil, donepezil, reference compound]
## Output Y

--- query ---
## Input Entry OCCOCCn1cc(CSc2ccc(-c3ccccn3)nn2)nn1 : is its inhibition at 100 µM no less than 80%?
## Output Y

* * *

# target.of.assay: butyrylcholinesterase (BuChE) (Homo sapiens, UniProt P06276)
# Sequence (P06276 29-602): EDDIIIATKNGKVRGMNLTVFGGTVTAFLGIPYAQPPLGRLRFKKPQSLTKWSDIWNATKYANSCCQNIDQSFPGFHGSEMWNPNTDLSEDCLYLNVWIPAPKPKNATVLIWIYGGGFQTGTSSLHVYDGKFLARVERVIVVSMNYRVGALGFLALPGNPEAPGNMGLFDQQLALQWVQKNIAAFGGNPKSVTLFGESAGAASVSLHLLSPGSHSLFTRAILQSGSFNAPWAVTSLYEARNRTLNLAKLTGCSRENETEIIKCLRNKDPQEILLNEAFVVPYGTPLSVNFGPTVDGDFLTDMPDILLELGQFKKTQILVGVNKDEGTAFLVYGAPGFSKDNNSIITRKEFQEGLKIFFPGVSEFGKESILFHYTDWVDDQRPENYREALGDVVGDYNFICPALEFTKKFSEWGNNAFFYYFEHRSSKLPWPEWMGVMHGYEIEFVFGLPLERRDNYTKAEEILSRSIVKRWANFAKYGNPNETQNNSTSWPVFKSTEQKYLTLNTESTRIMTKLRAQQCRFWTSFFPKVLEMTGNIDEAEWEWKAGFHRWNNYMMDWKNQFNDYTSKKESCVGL
# test: biochemical
# experimental.parameters: read-out: % inhibition BuChE
quantity.measured: inhibition at 0.01 µM (%)
The figure you give is taken to be in %; do not add the unit.

Recorded results for 3 molecules are shown here.
## Input Determine its reported inhibition at 0.01 µM: NCCn1cc(CSc2ccc(-c3ccccn3)nn2)nn1 [Compound 11]
## Output -8.1

## Input Answer with the recorded inhibition at 0.01 µM for the molecule listed here: OCCn1cc(CSc2ccc(-c3ccccn3)nn2)nn1 [Compound 10]
## Output 5.6

## Input Supply measured inhibition at 0.01 µM of CC(=O)OC1COC(n2cc(CSc3ccc(-c4ccccn4)nn3)nn2)C(OC(C)=O)C1OC(C)=O (stereo not shown) [Compound 5] in your reply.
## Output 25

Now consider a different molecule.
## Input Quote inhibition at 0.01 µM reported for COc1cc2c(cc1OC)C(=O)C(CC1CCN(Cc3ccccc3)CC1)C2 (stereo not shown) [Donepezil, donepezil, reference compound] please.
## Output 16

* * *

In this section, each of the compounds is paired with its reported inhibition at 0.1 µM.
# target.of.assay: UniProt:P06276
# test: biochemical
# experimental.parameters: read-out: % inhibition BuChE
Reply with just the number (in %).

## Input Look up and report measured inhibition at 0.1 µM for this entry: OCCn1cc(CSc2ccc(-c3ccccn3)nn2)nn1
## Output 13

## Input Give the measured inhibition at 0.1 µM for CC(=O)OCC1OC(n2cc(CSc3ccc(-c4ccccn4)nn3)nn2)C(OC(C)=O)C(OC(C)=O)C1OC(C)=O (centres unmarked)
## Output 39

## Input Please look at this compound and report its inhibition at 0.1 µM: CC(=O)OC[C@H]1O[C@@H](n2cc(CSc3ccc(-c4ccccn4)nn3)nn2)[C@H](OC(C)=O)[C@@H](OC(C)=O)[C@H]1OC(C)=O
## Output 11

## Input # return recorded inhibition at 0.1 µM for entry OCCOCCn1cc(CSc2ccc(-c3ccccn3)nn2)nn1
## Output 37

## Input Given C#CCSc1ccc(-c2ccccn2)nn1 , respond with its inhibition at 0.1 µM.
## Output 19

More entries:
## Input Note down inhibition at 0.1 µM recorded for NCCn1cc(CSc2ccc(-c3ccccn3)nn2)nn1
## Output 7.5

## Input State its inhibition at 0.1 µM for this compound: COc1cc2c(cc1OC)C(=O)C(CC1CCN(Cc3ccccc3)CC1)C2 (centres unmarked) [Donepezil, donepezil, reference compound]
## Output 32

## Input Quick one: give measured inhibition at 0.1 µM for OC[C@H]1O[C@@H](n2cc(CSc3ccc(-c4ccccn4)nn3)nn2)[C@H](O)[C@@H]1O
## Output 13
